Hey, just so you know, these numbers are from ChEMBL document CHEMBL4706761.

target: microRNA 21; assay: Binding affinity to 5'-FAM/3'-DAB-labeled UGUCGGGUAGCUUAUCAGACUGAUGUUGACUGUUGAAUCUCAUGGCAACACCAGUCGAUGGGCUGUCUGACA pre-miRNA-21 (unknown origin) assessed as dissociation constant incubated for overnight by fluorescence based assay; type: nucleic-acid assay
Please note: Kd exactly at 300 nM is no. Only values below 300 nM get yes.

Some solved entries appear below for comparison.
1) CC(=O)Nc1nc(-c2cccc(NC(=O)CCC(=O)N[C@@H](Cc3cn(C[C@H]4O[C@@H](O[C@@H]5[C@@H](O)[C@H](N)C[C@H](N)[C@H]5O[C@H]5O[C@H](CN)[C@@H](O)[C@H](O)[C@H]5N)[C@H](O)[C@@H]4O[C@H]4O[C@@H](CN)[C@@H](O)[C@H](O)[C@H]4N)nn3)C(=O)N[C@@H](CCCCN)C(N)=O)c2)cs1 | yes
2) NC[C@@H]1O[C@H](O[C@H]2[C@@H](O)[C@H](O[C@@H]3[C@@H](O)[C@H](N)C[C@H](N)[C@H]3O[C@H]3O[C@H](CN)[C@@H](O)[C@H](O)[C@H]3N)O[C@@H]2Cn2cc(CCC(=O)Nc3cccc(-c4csc(NC(=O)[C@@H](N)Cc5c[nH]cn5)n4)c3)nn2)[C@H](N)[C@@H](O)[C@@H]1O | yes
3) CC(=O)Nc1nc(-c2cccc(NC(=O)CCC(=O)N[C@@H](Cc3cn(C[C@H]4O[C@@H](O[C@@H]5[C@@H](O)[C@H](N)C[C@H](N)[C@H]5O[C@H]5O[C@H](CN)[C@@H](O)[C@H](O)[C@H]5N)[C@H](O)[C@@H]4O[C@H]4O[C@@H](CN)[C@@H](O)[C@H](O)[C@H]4N)nn3)C(=O)N[C@@H](Cc3c[nH]cn3)C(N)=O)c2)cs1 | yes
4) Cc1ccc(C(=O)Nc2nc(-c3cccc(NC(=O)CCC(=O)N[C@@H](Cc4cn(C[C@H]5O[C@@H](O[C@@H]6[C@@H](O)[C@H](N)C[C@H](N)[C@H]6O[C@H]6O[C@H](CN)[C@@H](O)[C@H](O)[C@H]6N)[C@H](O)[C@@H]5O[C@H]5O[C@@H](CN)[C@@H](O)[C@H](O)[C@H]5N)nn4)C(=O)N[C@@H](CCCCN)C(N)=O)c3)cs2)cc1 | no
5) C[C@H](NC(=O)[C@H](Cc1cn(C[C@H]2O[C@@H](O[C@@H]3[C@@H](O)[C@H](N)C[C@H](N)[C@H]3O[C@H]3O[C@H](CN)[C@@H](O)[C@H](O)[C@H]3N)[C@H](O)[C@@H]2O[C@H]2O[C@@H](CN)[C@@H](O)[C@H](O)[C@H]2N)nn1)NC(=O)CCC(=O)NCCn1ccc(=O)[nH]c1=O)C(N)=O | no

Now take the following compound into account.
Determine if `Cc1ccc(C(=O)Nc2nc(-c3cccc(NC(=O)CCC(=O)N[C@@H](Cc4cn(C[C@H]5O[C@@H](O[C@@H]6[C@@H](O)[C@H](N)C[C@H](N)[C@H]6O[C@H]6O[C@H](CN)[C@@H](O)[C@H](O)[C@H]6N)[C@H](O)[C@@H]5O[C@H]5O[C@@H](CN)[C@@H](O)[C@H](O)[C@H]5N)nn4)C(=O)N[C@@H](C)C(N)=O)c3)cs2)cc1` shows Kd strictly lower than 300 nM.
yes
